Known % Internalization relative to Control I of a selection of molecules
Molecular target: T1, PRLR-expressing cells (T47D) (Homo sapiens, UniProt P16471)
T1 construct: a native PRLR expressing cell line (T47D); endogenous in cells; host or cells: T47D
T1 sequence (P16471 25-622): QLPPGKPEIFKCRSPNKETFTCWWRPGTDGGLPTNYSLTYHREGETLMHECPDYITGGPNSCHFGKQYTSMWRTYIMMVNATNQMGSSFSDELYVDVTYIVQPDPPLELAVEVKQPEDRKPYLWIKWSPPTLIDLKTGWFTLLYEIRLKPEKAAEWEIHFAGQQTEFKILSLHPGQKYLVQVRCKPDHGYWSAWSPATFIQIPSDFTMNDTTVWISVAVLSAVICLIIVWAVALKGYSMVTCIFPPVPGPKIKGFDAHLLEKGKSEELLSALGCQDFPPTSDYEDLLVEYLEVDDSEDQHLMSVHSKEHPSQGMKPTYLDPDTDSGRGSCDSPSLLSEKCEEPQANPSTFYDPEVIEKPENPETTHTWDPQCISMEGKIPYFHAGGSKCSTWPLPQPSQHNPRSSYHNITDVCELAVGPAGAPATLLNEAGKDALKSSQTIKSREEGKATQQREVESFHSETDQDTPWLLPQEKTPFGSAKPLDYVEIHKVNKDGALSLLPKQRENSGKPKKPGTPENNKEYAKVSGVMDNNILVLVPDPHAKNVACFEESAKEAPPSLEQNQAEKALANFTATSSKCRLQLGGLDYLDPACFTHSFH
Experiment: Antibody binding and internalization by PRLR-expressing cells (imaging)
Assay type: cell-based
Conditions: [mAb] (0.67 nM), alexa488 intensity in intracellular vesicles, 1 h at 37° C.
Reply numerically in %, unit not repeated.

Here is how some molecules turned out for % Internalization relative to Control I.
INSERT INTO assay_data (molecule, reading) VALUES
  ('H1H6960N: human IgG1 Fc form of H2M6960N; anti-PRLR; HCVR/LCVR SEQ ID NOs 322/330 (antibody, V domains shown, human IgG1 Fc) VH: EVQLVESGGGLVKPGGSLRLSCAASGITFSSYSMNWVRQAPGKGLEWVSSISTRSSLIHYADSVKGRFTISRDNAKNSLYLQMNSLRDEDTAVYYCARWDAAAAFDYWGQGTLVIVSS VL: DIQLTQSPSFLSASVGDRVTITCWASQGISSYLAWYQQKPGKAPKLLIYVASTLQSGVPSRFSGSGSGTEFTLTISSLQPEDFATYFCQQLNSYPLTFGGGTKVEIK', 120.0),
  ('H1H6785P: anti-PRLR antibody, human IgG1 Fc; HCVR/LCVR SEQ ID NOs 98/106 (antibody, V domains shown, human IgG1 Fc) VH: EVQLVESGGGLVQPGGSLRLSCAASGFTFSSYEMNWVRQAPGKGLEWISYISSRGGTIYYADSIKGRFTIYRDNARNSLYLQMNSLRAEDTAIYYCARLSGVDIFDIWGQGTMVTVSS VL: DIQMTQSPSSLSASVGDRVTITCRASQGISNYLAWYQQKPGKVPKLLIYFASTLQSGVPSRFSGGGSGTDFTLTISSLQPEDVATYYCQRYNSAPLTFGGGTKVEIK', 169.1),
  ('H1H6765P: anti-PRLR antibody, human IgG1 Fc; HCVR/LCVR SEQ ID NOs 18/26 (antibody, V domains shown, human IgG1 Fc) VH: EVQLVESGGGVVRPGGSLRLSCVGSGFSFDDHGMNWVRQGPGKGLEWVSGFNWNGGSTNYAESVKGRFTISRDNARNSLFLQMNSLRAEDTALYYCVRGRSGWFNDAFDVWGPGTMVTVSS VL: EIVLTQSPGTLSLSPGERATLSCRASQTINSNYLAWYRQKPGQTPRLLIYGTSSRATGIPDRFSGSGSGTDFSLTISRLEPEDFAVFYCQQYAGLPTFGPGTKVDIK', 186.3);

Shift focus to the following entry.
Request: Quote % Internalization relative to Control I reported for H1H6958N2: human IgG1 Fc form of H2M6958N2; anti-PRLR, receptor blocking; HCVR/LCVR SEQ ID NOs 290/298 (antibody, V domains shown, human IgG1 Fc) VH: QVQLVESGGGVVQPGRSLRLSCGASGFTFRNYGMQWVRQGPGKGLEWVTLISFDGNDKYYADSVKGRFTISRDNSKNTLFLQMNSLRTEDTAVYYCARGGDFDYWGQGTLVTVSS VL: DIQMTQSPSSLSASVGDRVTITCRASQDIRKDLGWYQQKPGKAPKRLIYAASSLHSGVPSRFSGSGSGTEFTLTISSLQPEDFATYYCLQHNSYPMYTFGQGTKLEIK please.
Result: 169.0
